- assay details: Plasma PK of brensocatib, BID vs QD oral dosing, C57BL/6 mice
- Type: in vivo
- condition: both sexes, mouse, C57BL/6 mice, oral BID, 0.5 mg/kg/day, first 24 h, read-out: AUC(0–24)
measured property: AUC(0-t) (µM·h)

{"chemical smiles": "Cn1c(=O)oc2ccc(-c3ccc(C[C@@H](C#N)NC(=O)[C@@H]4CNCCCO4)cc3)cc21", "units of measure": "µM·h", "measured": 0.7}

----------
- assay details: Plasma PK of brensocatib, BID vs QD oral dosing, BALB/c mice
- Type: in vivo
- condition: both sexes, BALB/c, mouse, po, 2 mg/kg/day, oral BID, 2 mg/kg/day, first 24 h, read-out: AUC(0–24)

{"chemical smiles": "Cn1c(=O)oc2ccc(-c3ccc(C[C@@H](C#N)NC(=O)[C@@H]4CNCCCO4)cc3)cc21", "AUC(0-t), µM·h": 3.59}

----------
- assay details: Plasma PK of brensocatib, BID vs QD oral dosing, Wistar rats
- Format: in vivo
- condition: both sexes, Wistar, rat, po, 2 mg/kg/day, oral BID, 2 mg/kg/day, morning dose, read-out: t1/2, AM dose (converted)
measured property: half-life (h)

{"compound": "Cn1c(=O)oc2ccc(-c3ccc(C[C@@H](C#N)NC(=O)[C@@H]4CNCCCO4)cc3)cc21 [brensocatib]", "units of measure": "h", "measured": 10.2}

----------
- assay details: Plasma PK of brensocatib, BID vs QD oral dosing, Sprague Dawley rats
- Assay type: in vivo
- condition: both sexes, Sprague-Dawley, rat, SD rats, oral QD, 0.3 mg/kg/day, first 24 h, read-out: AUC0–24h
measured property: AUC(0-t) (ng·h/mL)

{"compound": "Cn1c(=O)oc2ccc(-c3ccc(C[C@@H](C#N)NC(=O)[C@@H]4CNCCCO4)cc3)cc21 [brensocatib]", "measured": 269}

----------
- assay details: Plasma PK of brensocatib, BID vs QD oral dosing, Wistar rats
- Format: in vivo
- condition: both sexes, Wistar, rat, po, 0.3 mg/kg/day, oral QD, 0.3 mg/kg/day, read-out: t1/2, AM dose (converted)
- Protocol: A dose frequency study was performed in male and female mice (C57BL/6 & BALB/c) and in male and female rats (Sprague Dawley & Wistar) investigating twice daily (BID) versus once daily (QD) brensocatib administration. Briefly, animals were weighed and randomized into different treatment groups. […] For sparse PK analysis via LC-MS/MS, plasma was collected from animals during the first 24 h of dosing at prescribed timepoints. […] See section Quantification of Plasma Brensocatib Concentrations for details. […]

{"chemical smiles": "Cn1c(=O)oc2ccc(-c3ccc(C[C@@H](C#N)NC(=O)[C@@H]4CNCCCO4)cc3)cc21", "half-life [h]": 34.3}

----------
- assay details: Plasma PK of brensocatib, BID vs QD oral dosing, Wistar rats
- Type: in vivo
- condition: both sexes, Wistar, rat, po, 3 mg/kg/day, oral QD, 3 mg/kg/day, read-out: t1/2, AM dose (converted)
measured property: half-life (h)

{"chemical smiles": "Cn1c(=O)oc2ccc(-c3ccc(C[C@@H](C#N)NC(=O)[C@@H]4CNCCCO4)cc3)cc21", "measured property": "half-life", "measured": 5.14}

----------
- assay details: Plasma PK of brensocatib, BID vs QD oral dosing, BALB/c mice
- Format: in vivo
- condition: both sexes, BALB/c, mouse, po, 30 mg/kg/day, oral QD, 30 mg/kg/day, first 24 h, read-out: AUC(0–24)

{"compound": "Cn1c(=O)oc2ccc(-c3ccc(C[C@@H](C#N)NC(=O)[C@@H]4CNCCCO4)cc3)cc21 [brensocatib]", "units of measure": "µM·h", "AUC(0-t)": 134}

----------
- assay details: Plasma PK of brensocatib, BID vs QD oral dosing, C57BL/6 mice
- Assay type: in vivo
- condition: both sexes, C57BL/6, mouse, po, 2 mg/kg/day, C57BL/6 mice, oral BID, 2 mg/kg/day, evening dose, read-out: t1/2, PM dose (converted)
- Procedure: A dose frequency study was performed in male and female mice (C57BL/6 & BALB/c) and in male and female rats (Sprague Dawley & Wistar) investigating twice daily (BID) versus once daily (QD) brensocatib administration. Briefly, animals were weighed and randomized into different treatment groups. […] For sparse PK analysis via LC-MS/MS, plasma was collected from animals during the first 24 h of dosing at prescribed timepoints. […] See section Quantification of Plasma Brensocatib Concentrations for details. […]

{"compound": "Cn1c(=O)oc2ccc(-c3ccc(C[C@@H](C#N)NC(=O)[C@@H]4CNCCCO4)cc3)cc21 [brensocatib]", "units of measure": "h", "half-life": 2.35}

----------
- assay details: Plasma PK of brensocatib, BID vs QD oral dosing, Wistar rats
- Assay type: in vivo
- condition: both sexes, rat, oral QD, 0.3 mg/kg/day, first 24 h, read-out: AUC0–24h

{"chemical smiles": "Cn1c(=O)oc2ccc(-c3ccc(C[C@@H](C#N)NC(=O)[C@@H]4CNCCCO4)cc3)cc21", "AUC(0-t), ng·h/mL": 1040}

----------
- assay details: Plasma PK of brensocatib, BID vs QD oral dosing, BALB/c mice
- Type: in vivo
- condition: both sexes, BALB/c, mouse, po, 0.2 mg/kg/day, oral BID, 0.2 mg/kg/day, first 24 h, read-out: AUC(0–24)

{"chemical smiles": "Cn1c(=O)oc2ccc(-c3ccc(C[C@@H](C#N)NC(=O)[C@@H]4CNCCCO4)cc3)cc21", "AUC(0-t), µM·h": 0.29}

----------
- assay details: Plasma PK of brensocatib, BID vs QD oral dosing, Sprague Dawley rats
- Format: in vivo
- condition: both sexes, Sprague-Dawley, rat, po, 0.3 mg/kg/day, SD rats, oral QD, 0.3 mg/kg/day, read-out: t1/2, AM dose (converted)
measured property: half-life (h)

{"compound": "Cn1c(=O)oc2ccc(-c3ccc(C[C@@H](C#N)NC(=O)[C@@H]4CNCCCO4)cc3)cc21 [brensocatib]", "units of measure": "h", "measured": 5.36}

----------
- assay details: Plasma PK of brensocatib, BID vs QD oral dosing, BALB/c mice
- Format: in vivo
- condition: both sexes, BALB/c, mouse, po, 0.2 mg/kg/day, oral BID, 0.2 mg/kg/day, evening dose, read-out: t1/2, PM dose (converted)
measured property: half-life (min)

{"chemical smiles": "Cn1c(=O)oc2ccc(-c3ccc(C[C@@H](C#N)NC(=O)[C@@H]4CNCCCO4)cc3)cc21", "measured": 40.2}

----------
- assay details: Plasma PK of brensocatib, BID vs QD oral dosing, C57BL/6 mice
- Assay type: in vivo
- condition: both sexes, C57BL/6, mouse, po, 2 mg/kg/day, C57BL/6 mice, oral BID, 2 mg/kg/day, morning dose, read-out: t1/2, AM dose (converted)

{"molecule": "Cn1c(=O)oc2ccc(-c3ccc(C[C@@H](C#N)NC(=O)[C@@H]4CNCCCO4)cc3)cc21 [brensocatib]", "half-life [h]": 2.07}

----------
- assay details: Plasma PK of brensocatib, BID vs QD oral dosing, BALB/c mice
- Assay type: in vivo
- condition: both sexes, BALB/c, mouse, po, 30 mg/kg/day, oral QD, 30 mg/kg/day, first 24 h, read-out: AUC0–24h

{"chemical smiles": "Cn1c(=O)oc2ccc(-c3ccc(C[C@@H](C#N)NC(=O)[C@@H]4CNCCCO4)cc3)cc21", "units of measure": "ng·h/mL", "AUC(0-t)": 56300}

----------
- assay details: Plasma PK of brensocatib, BID vs QD oral dosing, C57BL/6 mice
- Format: in vivo
- condition: both sexes, mouse, C57BL/6 mice, oral BID, 20 mg/kg/day, first 24 h, read-out: AUC(0–24)

{"compound": "Cn1c(=O)oc2ccc(-c3ccc(C[C@@H](C#N)NC(=O)[C@@H]4CNCCCO4)cc3)cc21 [brensocatib]", "AUC(0-t), µM·h": 37.7}

----------
- assay details: Plasma PK of brensocatib, BID vs QD oral dosing, C57BL/6 mice
- Format: in vivo
- condition: both sexes, mouse, C57BL/6 mice, oral QD, 30 mg/kg/day, first 24 h, read-out: AUC0–24h
measured property: AUC(0-t)

{"molecule": "Cn1c(=O)oc2ccc(-c3ccc(C[C@@H](C#N)NC(=O)[C@@H]4CNCCCO4)cc3)cc21 [brensocatib]", "measured": "52600 ng·h/mL"}

----------
- assay details: Plasma PK of brensocatib, BID vs QD oral dosing, BALB/c mice
- Format: in vivo
- condition: both sexes, BALB/c, mouse, po, 0.2 mg/kg/day, oral BID, 0.2 mg/kg/day, first 24 h, read-out: AUC0–24h

{"chemical smiles": "Cn1c(=O)oc2ccc(-c3ccc(C[C@@H](C#N)NC(=O)[C@@H]4CNCCCO4)cc3)cc21", "AUC(0-t)": "124 ng·h/mL"}
